Collected IC50 values appear next to each entry.
Measurement Target: Nav 1.5 (Homo sapiens (Human), UniProt Q14524)
Sequence (Q14524 whole entry): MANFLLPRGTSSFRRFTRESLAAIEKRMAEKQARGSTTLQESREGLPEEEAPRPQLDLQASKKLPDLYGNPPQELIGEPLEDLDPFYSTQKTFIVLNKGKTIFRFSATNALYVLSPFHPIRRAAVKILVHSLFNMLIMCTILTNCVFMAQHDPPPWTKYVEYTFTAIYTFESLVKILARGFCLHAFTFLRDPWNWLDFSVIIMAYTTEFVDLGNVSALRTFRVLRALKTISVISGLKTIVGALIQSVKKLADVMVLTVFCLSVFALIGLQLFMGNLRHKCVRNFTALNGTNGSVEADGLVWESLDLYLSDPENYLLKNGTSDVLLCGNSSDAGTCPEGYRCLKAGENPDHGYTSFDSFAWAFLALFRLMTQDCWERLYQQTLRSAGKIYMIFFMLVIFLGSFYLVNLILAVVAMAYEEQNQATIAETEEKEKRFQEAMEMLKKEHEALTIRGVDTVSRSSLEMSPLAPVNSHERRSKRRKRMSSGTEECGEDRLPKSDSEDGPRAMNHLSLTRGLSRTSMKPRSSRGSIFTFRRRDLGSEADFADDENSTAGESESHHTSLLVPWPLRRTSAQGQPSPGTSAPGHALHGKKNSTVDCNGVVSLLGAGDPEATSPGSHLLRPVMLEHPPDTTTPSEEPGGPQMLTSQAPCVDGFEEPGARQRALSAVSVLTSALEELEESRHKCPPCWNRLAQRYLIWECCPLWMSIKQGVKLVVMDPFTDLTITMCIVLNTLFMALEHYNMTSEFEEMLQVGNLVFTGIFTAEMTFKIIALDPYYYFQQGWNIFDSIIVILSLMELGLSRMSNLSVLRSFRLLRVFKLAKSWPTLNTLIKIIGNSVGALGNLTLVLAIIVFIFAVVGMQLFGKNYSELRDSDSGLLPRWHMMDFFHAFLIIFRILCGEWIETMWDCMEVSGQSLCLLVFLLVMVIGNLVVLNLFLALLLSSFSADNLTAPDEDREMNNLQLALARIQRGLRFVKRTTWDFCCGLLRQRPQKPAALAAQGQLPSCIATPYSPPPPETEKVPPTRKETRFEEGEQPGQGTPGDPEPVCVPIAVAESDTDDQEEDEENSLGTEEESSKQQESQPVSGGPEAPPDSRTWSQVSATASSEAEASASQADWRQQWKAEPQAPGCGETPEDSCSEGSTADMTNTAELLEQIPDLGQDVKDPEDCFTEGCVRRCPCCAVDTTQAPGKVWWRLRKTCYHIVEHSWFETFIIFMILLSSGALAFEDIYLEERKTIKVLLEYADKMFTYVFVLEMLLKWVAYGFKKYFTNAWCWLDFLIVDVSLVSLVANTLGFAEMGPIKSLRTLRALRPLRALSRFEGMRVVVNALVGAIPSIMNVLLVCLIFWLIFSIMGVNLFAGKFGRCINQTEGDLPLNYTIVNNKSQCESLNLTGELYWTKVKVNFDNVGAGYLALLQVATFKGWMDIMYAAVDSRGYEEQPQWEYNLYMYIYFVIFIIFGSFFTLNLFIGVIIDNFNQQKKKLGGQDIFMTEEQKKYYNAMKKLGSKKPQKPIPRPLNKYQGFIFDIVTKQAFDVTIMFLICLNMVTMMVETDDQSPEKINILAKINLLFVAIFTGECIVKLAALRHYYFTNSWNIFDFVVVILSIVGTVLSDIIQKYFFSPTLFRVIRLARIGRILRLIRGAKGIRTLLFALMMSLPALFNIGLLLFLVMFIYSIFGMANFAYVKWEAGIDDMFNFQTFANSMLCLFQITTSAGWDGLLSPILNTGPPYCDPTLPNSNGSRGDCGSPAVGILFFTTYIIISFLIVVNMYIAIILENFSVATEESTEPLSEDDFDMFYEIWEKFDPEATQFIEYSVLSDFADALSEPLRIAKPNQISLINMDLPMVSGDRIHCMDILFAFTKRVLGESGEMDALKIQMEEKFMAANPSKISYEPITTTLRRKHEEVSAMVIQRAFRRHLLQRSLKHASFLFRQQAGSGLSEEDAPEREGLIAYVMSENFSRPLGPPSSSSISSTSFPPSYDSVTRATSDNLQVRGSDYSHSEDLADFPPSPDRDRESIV
Test Method Notes: in-vitro Nav 1.5 PX (IC50)
Condition Summary: read-out: Nav 1.5 PX IC50

{"Compound": "COc1cc(-c2cc(F)cc(Cl)c2)c(Cl)cc1-n1c(=O)ccc2cc(S(=O)(=O)Nc3ccon3)ccc21 (atropisomer, axis not shown; (P)) [Example 461]", "IC50": "> 30 µM"}
{"Compound": "COc1cc(-c2cccc(C(F)(F)F)c2)c(Cl)cc1-n1c(=O)ccc2cc(S(=O)(=O)Nc3ccon3)ccc21 (atropisomer, axis not shown; (P)) [Example 533]", "IC50": "> 30 µM"}
{"Compound": "COc1cc(-c2cccc(F)c2)c(Cl)cc1-n1c(=O)ccc2cc(S(=O)(=O)Nc3nncs3)ccc21 (atropisomer, axis not shown; (P)) [Example 353]", "IC50": "> 30 µM"}
{"Compound": "COc1cc(-c2cc(F)cnc2OC)ccc1-n1c(=O)ccc2cc(S(=O)(=O)Nc3ccon3)ccc21 (atropisomer, axis not shown; (P)) [Example 581]", "IC50": "> 10 µM"}
